// reported melting point for each item listed
Please state the figure in °C; there is no need to write the unit.

>  <TEST_SMILES>
Cn1c(=O)n(Cc2ccccc2)c(=O)c2cc(C(=O)NCc3ccc4c(c3)OCO4)ccc21

>  <VAL>
215

$$$$

input: Check the records and state melting point for O=C(Cc1ccccc1Nc1c(Cl)cccc1Cl)OCI
output: 66

###

READOUT: melting point

Reference set (2 entries):
>  <TEST_SMILES>
CN(C)Cc1cc(-c2ccccc2)c2c(n1)OCCN(Cc1cc(C(F)(F)F)cc(C(F)(F)F)c1)C2=O

>  <VAL>
186 to 188 °C

$$$$
>  <TEST_SMILES>
CNC(=O)CCc1nc(-c2ccc(Cl)cc2)co1

>  <VAL>
169 to 170 °C

$$$$

input: Check the records and state melting point for Nc1ccc([N+](=O)[O-])c(NC(=O)c2ccccc2)c1
output: 203 to 207 °C
